Tested on: NCI-H2126;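 note: growth inhibition of the cancer cell line, determined with a cell viability readout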
assay: cells
Format: functional, cell-based, Homo sapiens
experimental parameters: Homo sapiens, NCI-H2126
Description: SANGER: Inhibition of human NCI-H2126 cell growth in a cell viability assay.

{"smiles text": "NC(=O)Nc1cc(-c2cccc(F)c2)sc1C(=O)N[C@H]1CCCNC1", "IC50": "> 2 µM"}
{"smiles text": "O=C1NC(=O)c2c1c(-c1ccccc1Cl)cc1[nH]c3ccc(O)cc3c21", "IC50": "> 2 µM"}
{"smiles text": "Cc1cc(N2CCOCC2)cc2[nH]c(-c3c(NC[C@@H](O)c4cccc(Cl)c4)cc[nH]c3=O)nc12", "IC50": "3.98 µM"}
{"smiles text": "CCCCCCCCCCCC1=C(O)C(=O)C=C(O)C1=O", "IC50": "27.9 µM"}
{"smiles text": "C[C@@H](Oc1cc(-c2cnn(C3CCNCC3)c2)cnc1N)c1c(Cl)ccc(F)c1Cl", "IC50": "> 2 µM"}
{"smiles text": "O=C(NCCCNc1nc(Nc2cccc(NC(=O)N3CCCC3)c2)ncc1I)c1cccs1", "IC50": "> 5 µM"}

====

System: GI-ME-N;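 note: growth inhibition of human GI-ME-N cells, read out with a cell viability assay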
assay: cells
Assay type: functional, cell-based, Homo sapiens
experimental parameters: Homo sapiens, GI-ME-N
Description: SANGER: Inhibition of human GI-ME-N cell growth in a cell viability assay.

{"compound": "O=C1NC(=O)c2c1c(-c1ccccc1Cl)cc1[nH]c3ccc(O)cc3c21", "assayed target": "GI-ME-N", "value prefix": "=", "IC50, µM": 1.53}
{"compound": "Cc1cc(N2CCOCC2)cc2[nH]c(-c3c(NC[C@@H](O)c4cccc(Cl)c4)cc[nH]c3=O)nc12", "assayed target": "GI-ME-N", "value prefix": "=", "IC50, µM": 2.06}
{"compound": "Cc1ccc(-n2nc(C(C)(C)C)cc2NC(=O)Nc2ccc(OCCN3CCOCC3)c3ccccc23)cc1 [DORAMAPIMOD]", "assayed target": "GI-ME-N", "value prefix": ">", "IC50, µM": 10}
{"compound": "C=CC(=O)N1CCCC(Nc2nc(Nc3ccc(N(C)C(=O)CC)cc3)nc3[nH]cnc23)C1 (stereo not given)", "assayed target": "GI-ME-N", "value prefix": ">", "IC50, µM": 10.2}
{"compound": "CC(C)C[C@H](NC(=O)[C@H](Cc1ccccc1)NC(=O)c1cnccn1)B(O)O [BORTEZOMIB]", "assayed target": "GI-ME-N", "value prefix": "=", "IC50, µM": 0.000634}
{"compound": "CC1(C)CCC(c2ccc(Cl)cc2)=C(CN2CCN(c3ccc(C(=O)NS(=O)(=O)c4ccc(N[C@H](CCN5CCOCC5)CSc5ccccc5)c(S(=O)(=O)C(F)(F)F)c4)cc3)CC2)C1 [NAVITOCLAX]", "assayed target": "GI-ME-N", "value prefix": ">", "IC50, µM": 2}
{"compound": "O=C(NCCCNc1nc(Nc2cccc(NC(=O)N3CCCC3)c2)ncc1I)c1cccs1 [BX-795]", "assayed target": "GI-ME-N", "value prefix": "=", "IC50, µM": 1.87}
{"compound": "CS(=O)(=O)N1CCN(Cc2cc3nc(-c4cccc5[nH]ncc45)nc(N4CCOCC4)c3s2)CC1 [PICTILISIB]", "assayed target": "GI-ME-N", "value prefix": ">", "IC50, µM": 4}
{"compound": "O=S(=O)(O)c1ccc2cc(/N=N/c3cc(S(=O)(=O)O)c4cccnc4c3O)ccc2c1", "assayed target": "GI-ME-N", "value prefix": ">", "IC50, µM": 16}
{"compound": "CC1=C(/C=C/C(C)=C/C=C/C(C)=C/C(=O)O)C(C)(C)CCC1 [TRETINOIN]", "assayed target": "GI-ME-N", "value prefix": ">", "IC50, µM": 10}

====

Each item that follows carries a reported pIC50.
Tested on: SKG-IIIa
assay: cells
Assay type: functional, cell-based
experimental parameters: Homo sapiens
Description: SANGER: Inhibition of human SKG-IIIa cell growth in a cell viability assay.
pIC50: −log10 of the molar value.
recorded metric: pIC50

{"smiles text": "C/C(=C\\c1csc(C)n1)[C@@H]1C[C@@H]2O[C@]2(C)CCC[C@H](C)[C@H](O)[C@@H](C)C(=O)C(C)(C)[C@@H](O)CC(=O)O1", "recorded metric": "pIC50", "experimental result": "< 7.49"}
{"smiles text": "NC(=O)c1ccc(N(C(N)=O)c2c(F)cccc2F)nc1-c1ccc(F)cc1F", "recorded metric": "pIC50", "experimental result": "< 5.70"}
{"smiles text": "CN(NC(=O)CC(=O)NN(C)C(=S)c1ccccc1)C(=S)c1ccccc1", "recorded metric": "pIC50", "experimental result": 7.30}
{"smiles text": "COc1ccc(-c2cc3nccn3c(Nc3ncccc3C(N)=O)n2)cc1OC", "recorded metric": "pIC50", "experimental result": "< 5.10"}

====

Test system: OPM-2;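 note: growth of OPM-2 cells measured with a viability assay, IC50 for suppression of proliferation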
assay: cells
Assay type: functional, cell-based, Homo sapiens
experimental parameters: Homo sapiens, OPM-2
Description: SANGER: Inhibition of human OPM-2 cell growth in a cell viability assay.
recorded metric: IC50

{"compound": "Cc1ccc(C(=O)Nc2ccc(CN3CCN(C)CC3)c(C(F)(F)F)c2)cc1C#Cc1cnc2cccnn12 [PONATINIB]", "experimental result": "365 nM"}
{"compound": "Cc1cc(N2CCOCC2)cc2[nH]c(-c3c(NC[C@@H](O)c4cccc(Cl)c4)cc[nH]c3=O)nc12", "experimental result": "525 nM"}
{"compound": "COc1ccc(-c2cc3nccn3c(Nc3ncccc3C(N)=O)n2)cc1OC", "experimental result": "6160 nM"}
{"compound": "Cc1ccc(NC(=O)c2ccc(CN3CCN(C)CC3)cc2)cc1Nc1nccc(-c2cccnc2)n1 [IMATINIB]", "experimental result": "> 2000 nM"}
{"compound": "OC[C@H](Cc1ccccc1)Nc1nc(Oc2ccc3c(c2)CCC3)nc2c1ncn2Cc1ccc(-c2ccccc2)cc1", "experimental result": "> 10200 nM"}

====

Each item that follows carries a reported pIC50.
System: NB1;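 note: reduction of NB1 cell proliferation, read out with a viability assay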
assay: cells
Type: functional, cell-based, Homo sapiens
experimental parameters: Homo sapiens, NB1
Description: SANGER: Inhibition of human NB1 cell growth in a cell viability assay.
pIC50: −log10 of the molar value.

{"smiles text": "COC(=O)[C@H](CCSC)NC(=O)c1ccc(NC[C@@H](N)CS)cc1-c1ccccc1", "value prefix": "<", "pIC50": 5.99}
{"smiles text": "OC[C@H](Cc1ccccc1)Nc1nc(Oc2ccc3c(c2)CCC3)nc2c1ncn2Cc1ccc(-c2ccccc2)cc1", "value prefix": "=", "pIC50": 5.03}
{"smiles text": "Cc1ccc(NC(=O)c2ccc(CN3CCN(C)CC3)cc2)cc1Nc1nccc(-c2cccnc2)n1", "value prefix": "<", "pIC50": 5.70}
{"smiles text": "C/C(=C\\c1csc(C)n1)[C@@H]1C[C@@H]2O[C@]2(C)CCC[C@H](C)[C@H](O)[C@@H](C)C(=O)C(C)(C)[C@@H](O)CC(=O)O1", "value prefix": "=", "pIC50": 7.84}

====

Each item that follows carries a reported IC50.
System: OVCAR-4;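 note: growth inhibition of human OVCAR-4 cells, measured with a cell viability assay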
assay: cells
Assay type: functional, cell-based, Homo sapiens
experimental parameters: Homo sapiens, OVCAR-4
Description: SANGER: Inhibition of human OVCAR-4 cell growth in a cell viability assay.

{"smiles text": "CC(C)C[C@H](NC(=O)[C@H](Cc1ccccc1)NC(=O)c1cnccn1)B(O)O", "assayed target": "OVCAR-4", "unit info": "nM", "value prefix": "=", "IC50": 0.289}
{"smiles text": "COC(=O)[C@H](CCSC)NC(=O)c1ccc(NC[C@@H](N)CS)cc1-c1ccccc1", "assayed target": "OVCAR-4", "unit info": "nM", "value prefix": ">", "IC50": 1020}
{"smiles text": "Cc1ccc(C(=O)Nc2ccc(CN3CCN(C)CC3)c(C(F)(F)F)c2)cc1C#Cc1cnc2cccnn12", "assayed target": "OVCAR-4", "unit info": "nM", "value prefix": "=", "IC50": 416}
{"smiles text": "CS(=O)(=O)N1CCN(Cc2cc3nc(-c4cccc5[nH]ncc45)nc(N4CCOCC4)c3s2)CC1", "assayed target": "OVCAR-4", "unit info": "nM", "value prefix": ">", "IC50": 4000}

====

System: D-247MG
assay: cells
Assay type: functional, cell-based
experimental parameters: Homo sapiens
Description: SANGER: Inhibition of human D-247MG cell growth in a cell viability assay.
pIC50: −log10 of the molar value.
Each item that follows carries a reported pIC50.

{"compound": "CC1(C)CCC(c2ccc(Cl)cc2)=C(CN2CCN(c3ccc(C(=O)NS(=O)(=O)c4ccc(N[C@H](CCN5CCOCC5)CSc5ccccc5)c(S(=O)(=O)C(F)(F)F)c4)cc3)CC2)C1 [NAVITOCLAX]", "pIC50": 5.82}
{"compound": "Cc1ccc(-n2nc(C(C)(C)C)cc2NC(=O)Nc2ccc(OCCN3CCOCC3)c3ccccc23)cc1 [DORAMAPIMOD]", "pIC50": "< 5.00"}
{"compound": "CC1=C(/C=C/C(C)=C/C=C/C(C)=C/C(=O)O)C(C)(C)CCC1 [TRETINOIN]", "pIC50": "< 5.00"}
{"compound": "COc1cc(N2CCC(N3CCN(C)CC3)CC2)ccc1Nc1ncc(Cl)c(Nc2ccccc2S(=O)(=O)C(C)C)n1 [TAE-684]", "pIC50": "< 5.70"}
{"compound": "Cc1ccc(NC(=O)c2ccc(CN3CCN(C)CC3)cc2)cc1Nc1nccc(-c2cccnc2)n1 [IMATINIB]", "pIC50": "< 5.70"}
{"compound": "O=C1NC(=O)c2c1c(-c1ccccc1Cl)cc1[nH]c3ccc(O)cc3c21", "pIC50": "< 5.70"}
{"compound": "CN(C)CCOc1ccc(-c2nc(-c3ccncc3)c(-c3ccc4c(c3)CC/C4=N\\O)[nH]2)cc1 [SB590885]", "pIC50": "< 5.30"}
{"compound": "NC(=O)c1ccc(N(C(N)=O)c2c(F)cccc2F)nc1-c1ccc(F)cc1F [VX-702]", "pIC50": "< 5.70"}
{"compound": "C[C@@H](Oc1cc(-c2cnn(C3CCNCC3)c2)cnc1N)c1c(Cl)ccc(F)c1Cl [CRIZOTINIB]", "pIC50": "< 5.70"}
{"compound": "COC(=O)[C@H](CCSC)NC(=O)c1ccc(NC[C@@H](N)CS)cc1-c1ccccc1", "pIC50": "< 5.99"}
